Test: yeast display, Sf9 membrane polyspecificity reagent, FACS + sequencing; frameworks hold sequencing errors

construct.sequence	polyreactivity (PSR sort gate)
QVQLVESGGGLVQAGGSLRLSCDASGSIFEYYAMGWYRPAPGKERELVAAISSGGPTYYADSVKGRFTISRDNAKNTVYLQMNSLKPEDTAVYYCNADLWYPDYDYWGQGTQVTVSS	low polyreactivity
QVQLVESGGGLVQAGGSLRLSCAASGRIFRGYAMGWYRQAPGKERELVARITSSGSTNYADSVKGRFTISRDNAKNTVYLQMNSLKPEDTAVYYCAADKYYWGTGVWMDYWGQGTQVTVSS	high polyreactivity
QVQLVESGGGILQAGGSLRLSCAASGLTFPWYAMGWYRLAPGKERELVAAITHSDGNTYADSVKGRFTISRDKAKNTVYLQMNSLKPEDTAVYYCATDTRSQAYYYWGQGTQVTVSS	low polyreactivity
QVQLVESGGGLVQAGGSLRLSCAASGIIFGYSAMGWYRQAPGKERELVAAITRSGSSTYYADSVKGRFTISRDNAKNTVYLQMNSLKPEDTAVYYCAADNFYQSYGYWGQGTQVTVSS	low polyreactivity
QVQLVESGGGLVQAGGSLRLSCAASGYTIIVNAMGWYRQAPGKERELVAAISWSSVSTYYADSVKGRFTISRDNAKNTVYLQMNSLKPEDTAVYYCAAEGYDYSQWFDYWGQGTQVTASS	high polyreactivity
QVQLVESGGGLVQAGGSLRLSCAASGRTFYGYAMGWYRQAPGKERELVAAISRRGGSTNYADSVKGRFTISRDNAQTTVYLQMNSLKPEDTAVYYCNKVVPHKPPTMDYWGQGTQVTVSS	high polyreactivity
QDQLVESGGGLVQAGGSLRLSCAASGRIFYPYVMGWYRQAPGKERELVAAISDSTGSTYYADSVKGRFTISRDNAKNTVYLQMNSLKPEDTAVYYWGQGTQVTVSS	low polyreactivity
QVQLVESGGGLVQAGGSLRLSCAASGRIFFTNAMGWYRQAPGKERELVAAIRSSGGRTYYADSVKGRFTISRDNAKNTVYLQMNSLKPEDTAVYYCNVVDGRHISHYNYWGQGTQVTVSS	high polyreactivity
QVQLVESGGGLVQAGGSLRLSCAASGLTFCPNAMGWYRQAPGKEREFVASISISGRTYYADSVKGRFTISRDNAKNTVYLLMNSLKPEDTAVYYCAARYVRSGLYRKYDYWGQGTQVTVSS	high polyreactivity
QVQLVESGGGLVQAGGSLRLSCAASGRTFERYAMGWYRQAPGKERELVAAISSIGGSTYYADSVKGRFTISRDNAKNTVYLQMNSLKPEDTAVYYCADSVFYYASRYDYWGQGTKVTVSS	low polyreactivity
QVQLVESGGGLVQAGGSLRLSCAASGRIFPFNAMGWYRQAPGKEREFVAAIRLSGTRTYYADSVKGRFTISRDNAKNTVYLQMNSLKPEDTAVYYCAAKYSGHYYNYDYWGQGTQVSVSS	high polyreactivity
